measured.on: Ephrin type-B receptor 4 (Homo sapiens)
Sequence (P54760 whole entry): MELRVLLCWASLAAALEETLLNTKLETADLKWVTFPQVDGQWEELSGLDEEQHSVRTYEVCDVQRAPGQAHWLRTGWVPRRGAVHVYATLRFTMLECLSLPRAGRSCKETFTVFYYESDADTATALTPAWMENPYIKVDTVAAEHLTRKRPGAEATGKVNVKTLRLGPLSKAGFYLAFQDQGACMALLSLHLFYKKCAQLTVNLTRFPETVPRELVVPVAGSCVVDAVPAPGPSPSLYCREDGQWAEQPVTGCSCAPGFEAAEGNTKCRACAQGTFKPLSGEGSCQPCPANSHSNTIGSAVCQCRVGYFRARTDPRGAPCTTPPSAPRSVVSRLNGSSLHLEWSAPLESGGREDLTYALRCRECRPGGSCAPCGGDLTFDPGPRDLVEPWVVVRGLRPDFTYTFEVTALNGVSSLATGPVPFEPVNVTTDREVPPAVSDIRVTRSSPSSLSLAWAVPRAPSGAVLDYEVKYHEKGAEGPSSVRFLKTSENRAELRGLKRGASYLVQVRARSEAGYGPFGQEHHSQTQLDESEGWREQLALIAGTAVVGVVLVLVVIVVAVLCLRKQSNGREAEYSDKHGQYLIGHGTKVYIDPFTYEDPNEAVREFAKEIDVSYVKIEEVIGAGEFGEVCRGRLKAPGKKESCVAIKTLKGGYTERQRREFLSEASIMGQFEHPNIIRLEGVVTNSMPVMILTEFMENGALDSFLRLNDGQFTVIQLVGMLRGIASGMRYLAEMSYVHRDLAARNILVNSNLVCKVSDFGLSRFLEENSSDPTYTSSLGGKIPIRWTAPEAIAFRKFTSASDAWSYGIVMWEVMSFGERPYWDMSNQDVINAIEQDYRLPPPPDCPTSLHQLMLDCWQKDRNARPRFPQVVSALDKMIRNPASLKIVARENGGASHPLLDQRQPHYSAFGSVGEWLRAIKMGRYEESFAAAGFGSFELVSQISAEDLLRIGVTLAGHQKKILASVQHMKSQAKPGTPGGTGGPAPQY
Calls of active or inactive are those of the source.
Could you please pick one outcome from this set? active, inactive

[ask] Status in this test for O=C(NOC[C@H](O)CO)c1ccc(F)c(F)c1Nc1ccc(I)cc1F [MIRDAMETINIB] ?
[reply] inactive

[ask] Record lookup: outcome of this test for FC(F)(F)c1ccc(CNc2ccc(Cc3c[nH]c4ncc(Cl)cc34)cn2)cn1 [PEXIDARTINIB] ?
[reply] inactive

[ask] Could you check what this test reported for CNC(=O)c1cc(COc2nnc(Nc3ccc(Cl)cc3)c3ccoc23)ccn1 [TELATINIB] ?
[reply] inactive

[ask] What call does the record list for NC(=O)c1ccc(N(C(N)=O)c2c(F)cccc2F)nc1-c1ccc(F)cc1F [VX-702] ?
[reply] inactive

[ask] Recorded test outcome, item O=S(=O)(c1cccc2c(O)nccc12)N1CCCNCC1 [HYDROXYFASUDIL]
[reply] inactive

[ask] Hi, sorry to bother you, what did the test record for COc1cccc2cc(-c3nc([C@H]4CC[C@H](C(=O)O)CC4)n4ncnc(N)c34)[nH]c12 [OSI-027] ?
[reply] inactive

[ask] GET /call?item= CCc1cc2c(cc1N1CCC(N3CCOCC3)CC1)C(C)(C)c1[nH]c3cc(C#N)ccc3c1C2=O [ALECTINIB] returns the recorded outcome of this test.
[reply] inactive
